# credit: ChEMBL document CHEMBL1201862

# system: Polyadenylate-binding protein 1 (Homo sapiens, UniProt P11940)
# Sequence (P11940 whole entry): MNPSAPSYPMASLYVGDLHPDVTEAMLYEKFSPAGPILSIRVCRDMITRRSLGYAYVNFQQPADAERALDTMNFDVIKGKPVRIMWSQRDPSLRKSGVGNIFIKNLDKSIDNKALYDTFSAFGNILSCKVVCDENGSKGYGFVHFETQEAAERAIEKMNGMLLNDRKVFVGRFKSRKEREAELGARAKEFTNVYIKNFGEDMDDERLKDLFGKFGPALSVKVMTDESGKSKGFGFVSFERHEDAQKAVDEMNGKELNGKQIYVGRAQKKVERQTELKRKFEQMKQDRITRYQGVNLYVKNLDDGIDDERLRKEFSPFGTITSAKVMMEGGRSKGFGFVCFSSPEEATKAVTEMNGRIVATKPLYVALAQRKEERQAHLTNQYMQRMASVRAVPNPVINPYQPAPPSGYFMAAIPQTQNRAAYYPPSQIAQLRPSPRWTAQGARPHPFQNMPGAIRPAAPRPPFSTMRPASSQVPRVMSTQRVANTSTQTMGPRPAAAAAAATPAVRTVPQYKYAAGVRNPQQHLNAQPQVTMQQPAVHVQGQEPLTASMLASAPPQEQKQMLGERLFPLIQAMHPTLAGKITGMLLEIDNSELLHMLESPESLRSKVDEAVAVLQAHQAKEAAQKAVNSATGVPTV
# testMethodNotes: blockers of PABP interaction with poly(A) – biochemical, fluorescence polarization, […] (AID 2014)
Activity calls are given as the source filed them. Rule as the data show it: actives have a measured IC50 and inactives only a lower limit.
Kindly supply the reported IC50 values for the records listed here.

In [3]: df
Out[3]:
                                   compound                                    system    observedresult
0  COc1cc(/C=C/c2cccc[n+]2C)ccc1OCC(=O)Nc1ccccc1C  Polyadenylate-binding protein 1 (Homo sapiens, UniProt P11940)  3.83 µM (active)
1            COc1ccccc1NC(=O)c1cc[n+](C)cc1  Polyadenylate-binding protein 1 (Homo sapiens, UniProt P11940)  5.63 µM (active)
2  CC1=C(C(=O)OCc2ccccc2)C(c2ccccc2)NC(=O)N1CCCCCC(=O)O (centres undefined)  Polyadenylate-binding protein 1 (Homo sapiens, UniProt P11940)  29.9 µM (active)

Here is the next item to consider.
Give the measured IC50 of `COc1ccc(/C=C2\C(=O)NCC(=O)N2C)cc1` . 6.16 µM (active)
